The reader will find reported Activity values listed item by item below.
System: NCI-H460
Assay: Cytotoxicity against Homo sapiens (human) NCI-H460 cells at 100 uM after 48 hr by SRB assay relative to control
Format: cell-based
Details: nci-h460, 48 h
// units = %; emit number, no label

Recorded results for 4 compounds are shown here.
{"columns": ["compound", "resultValue"],
 "data": [
  ["N=C(NC1CC1)c1ccc(N2CCN(c3ccc(C(=N)NC4CC4)cc3)CC2)cc1", 74],
  ["N=C(N)c1ccc(OC(=O)c2ccc(C(=O)Oc3ccc(C(=N)N)cc3)cc2)cc1 [BIS(4-CARBAMIMIDOYLPHENYL)TEREPHTHALATE]", 96],
  ["N=C(N)c1ccc(NC(=O)CCCC(=O)Nc2ccc(C(=N)N)cc2)cc1", 105],
  ["N=C(N)c1ccc(NC(=O)CCCCC(=O)Nc2ccc(C(=N)N)cc2)cc1", 75]
]}

From here, focus on the item given below.
Query: I'd like to know its Activity. The compound in question is N=C(N)c1ccc(OCc2cccc(COc3ccc(C(=N)N)cc3)c2)cc1
Result: 0
